Each recorded value in this set is attributed to ChEMBL document CHEMBL1145498.

# SYSTEM: Serine/threonine-protein kinase pim-2 (Homo sapiens, UniProt Q9P1W9)
# Sequence (Q9P1W9 whole entry): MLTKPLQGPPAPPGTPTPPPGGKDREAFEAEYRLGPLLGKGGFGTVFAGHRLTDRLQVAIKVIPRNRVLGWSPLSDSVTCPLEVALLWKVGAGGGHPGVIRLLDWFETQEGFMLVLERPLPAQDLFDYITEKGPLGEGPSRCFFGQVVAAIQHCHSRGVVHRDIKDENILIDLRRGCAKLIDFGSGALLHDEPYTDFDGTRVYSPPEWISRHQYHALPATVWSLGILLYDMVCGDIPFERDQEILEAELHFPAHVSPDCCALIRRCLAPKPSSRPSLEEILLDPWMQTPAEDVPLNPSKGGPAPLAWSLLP
pIC50: −log10 of the molar value.
PROPERTY_LABEL: pIC50

Input: Fill in the blank: the reported pIC50 of "CN(C)C[C@@H]1CCn2cc(c3ccccc32)C2=C(C(=O)NC2=O)c2cn(c3ccccc23)CCO1" is ____.
Output: < 4.70

====

# SYSTEM: Proto-oncogene tyrosine-protein kinase Src (Homo sapiens)
# Sequence (P12931 2-536 limits assumed): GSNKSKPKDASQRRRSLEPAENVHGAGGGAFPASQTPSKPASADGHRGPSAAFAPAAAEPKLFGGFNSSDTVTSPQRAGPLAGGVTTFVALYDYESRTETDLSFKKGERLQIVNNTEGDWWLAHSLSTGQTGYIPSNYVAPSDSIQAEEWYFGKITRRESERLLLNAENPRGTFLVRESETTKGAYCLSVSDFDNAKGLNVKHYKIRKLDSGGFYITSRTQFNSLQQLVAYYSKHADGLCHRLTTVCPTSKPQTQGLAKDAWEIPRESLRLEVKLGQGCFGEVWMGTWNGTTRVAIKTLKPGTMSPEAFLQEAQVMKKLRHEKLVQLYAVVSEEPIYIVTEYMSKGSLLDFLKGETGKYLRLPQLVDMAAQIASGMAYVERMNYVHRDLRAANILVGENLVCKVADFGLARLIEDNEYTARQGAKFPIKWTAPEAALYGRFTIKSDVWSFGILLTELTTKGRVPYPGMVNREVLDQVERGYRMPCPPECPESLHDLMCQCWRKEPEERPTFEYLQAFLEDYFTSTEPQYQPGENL
# METHOD_NOTES: Inhibition of Src
# CONDITION_NOTES: read-out: IC50
PROPERTY_LABEL: IC50 (nM)
// return numeric value only (unit: nM, not printed)

Example entries begin here.
| COMPOUND | QUANTITATIVE_RESULT |
| --- | --- |
| O=C1Nc2ccccc2/C1=C1/Nc2ccccc2/C1=N\OCC(O)CO (stereo not given) | 430 |
| Cc1cc(C=C2C(=O)C=CC2=O)cc(C)c1O | 4400 |
| CN(C)S(=O)(=O)c1ccc2c(c1)/C(=C/c1cc3c([nH]1)CCCC3)C(=O)N2 | 280 |

Attention now shifts to the item below.
Input: Enter reported IC50 observed with Proto-oncogene tyrosine-protein kinase Src (Homo sapiens) for "CC(C)(C)c1cc(C=C2C(=O)C=CC2=O)cc(C(C)(C)C)c1O"
Output: 2200

====

Below are ΔTm values measured for Serine/threonine-protein kinase 38 (Homo sapiens).

Input: // ΔTm lookup, key: "Cc1ccc(NC(=O)c2cccc(N(C)C)c2)cc1NC(=O)c1ccc(O)cc1"
Output: 0 °C

Input: Entry under review: "O=C1NC(=O)c2c1c1c3ccccc3n3c1c1c2c2ccccc2n1C1CCC3O1" . Reported ΔTm?
Output: 0 °C

Input: What does the data say about its ΔTm? Entry: "C[C@@H](N)[C@H]1CC[C@H](C(=O)Nc2ccncc2)CC1"
Output: 0.4 °C

Input: Data request, read-out ΔTm, for "NCCNc1ncc(C(N)=O)c(Nc2cccc(C(F)(F)F)c2)n1"
Output: 2.5 °C

Input: Reported ΔTm, compound "Oc1cccc(-c2nc(N3CCOCC3)c3oc4ncccc4c3n2)c1" : ____
Output: 0 °C

Input: What value of ΔTm has been recorded for this entry: "COc1cc2ncnc(Nc3cccc(O)c3)c2cc1OC"
Output: 0.4 °C

====

# SYSTEM: Serine/threonine-protein kinase 17A (Homo sapiens) (UniProt Q9UEE5)
# Sequence (Q9UEE5 whole entry): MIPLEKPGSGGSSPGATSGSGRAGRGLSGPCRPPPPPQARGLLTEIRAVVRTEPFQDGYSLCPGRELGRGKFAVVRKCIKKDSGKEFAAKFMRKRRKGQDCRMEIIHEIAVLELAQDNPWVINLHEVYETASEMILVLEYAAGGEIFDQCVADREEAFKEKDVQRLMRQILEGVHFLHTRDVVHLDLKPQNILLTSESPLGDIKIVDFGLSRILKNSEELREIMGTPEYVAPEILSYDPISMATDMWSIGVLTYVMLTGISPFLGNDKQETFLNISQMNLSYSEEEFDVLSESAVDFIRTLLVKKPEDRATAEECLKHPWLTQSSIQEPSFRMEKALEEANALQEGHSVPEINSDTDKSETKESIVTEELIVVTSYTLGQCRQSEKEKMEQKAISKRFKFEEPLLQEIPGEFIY
PROPERTY_LABEL: ΔTm (°C)
Give just the number in °C; leave the unit off.

Solved entries (count: 5):
| MOLECULE | PROPERTY_LABEL | QUANTITATIVE_RESULT |
| --- | --- | --- |
| O=C(O)c1cc(N(Cc2ccccc2O)Cc2cc(O)ccc2O)ccc1O [LAVENDUSTIN A] | ΔTm | 0.1 |
| Cc1cc(Nc2nc(-c3ccccc3)nc3ccccc23)n[nH]1 | ΔTm | 2.2 |
| CN1CCc2[nH]c(=S)c(C#N)c(-c3cccs3)c2C1 | ΔTm | 0.9 |
| O=C1NC(=O)c2c1c1c3ccccc3n3c1c1c2c2ccccc2n1C1CCC3O1 | ΔTm | -0.4 |
| COc1ccc(COc2ccc(Cc3cnc(N)nc3N)cc2OC)cc1 | ΔTm | -0.4 |

Input: Name the reported ΔTm value associated with the molecule O=c1c(O)c(-c2ccc(O)c(O)c2)oc2cc(O)cc(O)c12 [QUERCETIN]
Output: 9.3
